- System: 494315-158-R-J1-PDC complex spheroid growth, percent test/control
- Measurement Description: Anticancer human tumor 494315-158-R-J1-PDC patient-derived soft tissue sarcoma cell line growth inhibition [Asc]
- Test Conditions: second compound 3 µM; first compound 0.1 µM; active compounds read low
Recorded Metric: viability, T/C (%)
Write the number in % without appending the unit.

# annotated cases, reported viability, T/C shown
Compound	viability, T/C (%)
Cn1ncnc1[C@H]1c2n[nH]c(=O)c3cc(F)cc(c23)N[C@@H]1c1ccc(F)cc1 + CCN1C(C(=O)NC23CCC(C(=O)O)(CC2)CC3)C(c2cccc(Cl)c2F)C2(C(=O)Nc3cc(Cl)ccc32)C12CCCCC2	74.2
COc1c(OCCCN2CCOCC2)ccc2c3n(c(=NC(=O)c4cnc(N)nc4)nc12)CCN3 + CCN1C(C(=O)NC23CCC(C(=O)O)(CC2)CC3)C(c2cccc(Cl)c2F)C2(C(=O)Nc3cc(Cl)ccc32)C12CCCCC2	32.1
O=C(c1cc(Cc2n[nH]c(=O)c3ccccc23)ccc1F)N1CCN(C(=O)C2CC2)CC1 + CCN1C(C(=O)NC23CCC(C(=O)O)(CC2)CC3)C(c2cccc(Cl)c2F)C2(C(=O)Nc3cc(Cl)ccc32)C12CCCCC2	83.9
CCN1CCN(Cc2ccc(Nc3ncc(F)c(-c4cc(F)c5nc(C)n(C(C)C)c5c4)n3)nc2)CC1 + CCN1C(C(=O)NC23CCC(C(=O)O)(CC2)CC3)C(c2cccc(Cl)c2F)C2(C(=O)Nc3cc(Cl)ccc32)C12CCCCC2	114
C=C(F)C(=O)N1CCN(c2nc(OCC3CCCN3C)nc3c2CCN(c2cccc4cccc(Cl)c24)C3)CC1CC#N (stereo not given) + CCN1C(C(=O)NC23CCC(C(=O)O)(CC2)CC3)C(c2cccc(Cl)c2F)C2(C(=O)Nc3cc(Cl)ccc32)C12CCCCC2	102
CNC(C)C(=O)NC1CN(S(=O)(=O)c2cccc(S(=O)(=O)N3CCC4CCC(C(=O)NC(c5ccccc5)c5ccccc5)N4C(=O)C(NC(=O)C(C)NC)C3)c2)CCC2CCC(C(=O)NC(c3ccccc3)c3ccccc3)N2C1=O (stereo not given) + CCN1C(C(=O)NC23CCC(C(=O)O)(CC2)CC3)C(c2cccc(Cl)c2F)C2(C(=O)Nc3cc(Cl)ccc32)C12CCCCC2	41.1
C#Cc1c(F)ccc2cc(O)cc(-c3ncc4c(N5CC6CCC(C5)N6)nc(OCC56CCCN5CC(F)C6)nc4c3F)c12 (stereo not given) + CCN1C(C(=O)NC23CCC(C(=O)O)(CC2)CC3)C(c2cccc(Cl)c2F)C2(C(=O)Nc3cc(Cl)ccc32)C12CCCCC2	91.5
O=C(c1ccc(F)c(F)c1Nc1ccc(I)cc1F)N1CC(O)([C@@H]2CCCCN2)C1 + CCN1C(C(=O)NC23CCC(C(=O)O)(CC2)CC3)C(c2cccc(Cl)c2F)C2(C(=O)Nc3cc(Cl)ccc32)C12CCCCC2	112

Looking up C=CC(=O)N1CCN(c2nc(=O)n(-c3c(C)ccnc3C(C)C)c3nc(-c4c(O)cccc4F)c(F)cc23)C(C)C1 (stereo not given) + CCN1C(C(=O)NC23CCC(C(=O)O)(CC2)CC3)C(c2cccc(Cl)c2F)C2(C(=O)Nc3cc(Cl)ccc32)C12CCCCC2 , I found its viability, T/C recorded as 96.9

Looking up NC1CCC(NC2CC2c2ccccc2)CC1 (stereo not given) + CCN1C(C(=O)NC23CCC(C(=O)O)(CC2)CC3)C(c2cccc(Cl)c2F)C2(C(=O)Nc3cc(Cl)ccc32)C12CCCCC2 , I found its viability, T/C recorded as 96.6

* * *

Let's look at some molecules and their measured viability, T/C.
- Tested on: 494315-158-R-J1-PDC complex spheroid growth, percent test/control
- Measurement Description: Anticancer human tumor 494315-158-R-J1-PDC cell line growth inhibition [Asc];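 further: compound exposure lasted seven days after spheroids formed for three days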
- Test Conditions: second compound 0.03 µM; first compound 3.16 µM; active compounds read low

Molecule	Recorded Metric	Result
C=CC(=O)N1CCN(c2nc(=O)n(-c3c(C)ccnc3C(C)C)c3nc(-c4c(O)cccc4F)c(F)cc23)C(C)C1 (centres undefined) + CCN1C(C(=O)NC23CCC(C(=O)O)(CC2)CC3)C(c2cccc(Cl)c2F)C2(C(=O)Nc3cc(Cl)ccc32)C12CCCCC2	viability, T/C	128%
C#Cc1c(F)ccc2cc(O)cc(-c3ncc4c(N5CC6CCC(C5)N6)nc(OCC56CCCN5CC(F)C6)nc4c3F)c12 (centres undefined) + CCN1C(C(=O)NC23CCC(C(=O)O)(CC2)CC3)C(c2cccc(Cl)c2F)C2(C(=O)Nc3cc(Cl)ccc32)C12CCCCC2	viability, T/C	108%
C=C(F)C(=O)N1CCN(c2nc(OCC3CCCN3C)nc3c2CCN(c2cccc4cccc(Cl)c24)C3)CC1CC#N (centres undefined) + CCN1C(C(=O)NC23CCC(C(=O)O)(CC2)CC3)C(c2cccc(Cl)c2F)C2(C(=O)Nc3cc(Cl)ccc32)C12CCCCC2	viability, T/C	66%

Switching to the query record.
Looking up O=C(c1cc(Cc2n[nH]c(=O)c3ccccc23)ccc1F)N1CCN(C(=O)C2CC2)CC1 + CCN1C(C(=O)NC23CCC(C(=O)O)(CC2)CC3)C(c2cccc(Cl)c2F)C2(C(=O)Nc3cc(Cl)ccc32)C12CCCCC2 , I found its viability, T/C recorded as 80.4%

* * *

Let's look at some compounds and their measured viability, T/C.
- Tested on: 494315-158-R-J1-PDC complex spheroid growth, percent test/control
- Measurement Description: Anticancer human tumor 494315-158-R-J1-PDC cell line growth inhibition [Asc];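 further: compound exposure lasted seven days after spheroids formed for three days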
- Test Conditions: second compound 3 µM; first compound 0.316 µM; active compounds read low
Write the number in % without appending the unit.

Compound	viability, T/C, %
C=C(F)C(=O)N1CCN(c2nc(OCC3CCCN3C)nc3c2CCN(c2cccc4cccc(Cl)c24)C3)CC1CC#N (stereo not drawn) + CCN1C(C(=O)NC23CCC(C(=O)O)(CC2)CC3)C(c2cccc(Cl)c2F)C2(C(=O)Nc3cc(Cl)ccc32)C12CCCCC2	100

Looking up C#Cc1c(F)ccc2cc(O)cc(-c3ncc4c(N5CC6CCC(C5)N6)nc(OCC56CCCN5CC(F)C6)nc4c3F)c12 (stereo not drawn) + CCN1C(C(=O)NC23CCC(C(=O)O)(CC2)CC3)C(c2cccc(Cl)c2F)C2(C(=O)Nc3cc(Cl)ccc32)C12CCCCC2 , I found its viability, T/C recorded as 89

Looking up COc1c(OCCCN2CCOCC2)ccc2c3n(c(=NC(=O)c4cnc(N)nc4)nc12)CCN3 + CCN1C(C(=O)NC23CCC(C(=O)O)(CC2)CC3)C(c2cccc(Cl)c2F)C2(C(=O)Nc3cc(Cl)ccc32)C12CCCCC2 , I found its viability, T/C recorded as 22.6

* * *

- Tested on: 494315-158-R-J1-PDC complex spheroid growth, percent test/control
- Measurement Description: Anticancer human tumor 494315-158-R-J1-PDC cell line growth inhibition [Asc];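 further: compound exposure lasted seven days after spheroids formed for three days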
- Test Conditions: second compound 0.0949 µM; first compound 0.316 µM; active compounds read low
- Source text: Multicellular complex tumor spheroid response to apoptosis pathway targeting inhibitors Alrizomadlin, Pelcitoclax, and Dasminapant in combination with a variety of drugs and investigational agents in selected tumor cell lines […] Compounds. […] If the clinical Cmax for an agent had not been determined, the highest concentration tested was 10 microM. […]
Let's look at some molecules and their measured viability, T/C.
Write the number in % without appending the unit.

Molecule	Numeric Value
COc1c(OCCCN2CCOCC2)ccc2c3n(c(=NC(=O)c4cnc(N)nc4)nc12)CCN3 + CCN1C(C(=O)NC23CCC(C(=O)O)(CC2)CC3)C(c2cccc(Cl)c2F)C2(C(=O)Nc3cc(Cl)ccc32)C12CCCCC2	22
O=C(c1ccc(F)c(F)c1Nc1ccc(I)cc1F)N1CC(O)([C@@H]2CCCCN2)C1 + CCN1C(C(=O)NC23CCC(C(=O)O)(CC2)CC3)C(c2cccc(Cl)c2F)C2(C(=O)Nc3cc(Cl)ccc32)C12CCCCC2	96.6

Considering C#Cc1c(F)ccc2cc(O)cc(-c3ncc4c(N5CC6CCC(C5)N6)nc(OCC56CCCN5CC(F)C6)nc4c3F)c12 (stereo not drawn) + CCN1C(C(=O)NC23CCC(C(=O)O)(CC2)CC3)C(c2cccc(Cl)c2F)C2(C(=O)Nc3cc(Cl)ccc32)C12CCCCC2 , its viability, T/C with 494315-158-R-J1-PDC complex spheroid growth, percent test/control was recorded as 98.2

Considering CCN1CCN(Cc2ccc(Nc3ncc(F)c(-c4cc(F)c5nc(C)n(C(C)C)c5c4)n3)nc2)CC1 + CCN1C(C(=O)NC23CCC(C(=O)O)(CC2)CC3)C(c2cccc(Cl)c2F)C2(C(=O)Nc3cc(Cl)ccc32)C12CCCCC2 , its viability, T/C with 494315-158-R-J1-PDC complex spheroid growth, percent test/control was recorded as 106

Considering O=C(c1cc(Cc2n[nH]c(=O)c3ccccc23)ccc1F)N1CCN(C(=O)C2CC2)CC1 + CCN1C(C(=O)NC23CCC(C(=O)O)(CC2)CC3)C(c2cccc(Cl)c2F)C2(C(=O)Nc3cc(Cl)ccc32)C12CCCCC2 , its viability, T/C with 494315-158-R-J1-PDC complex spheroid growth, percent test/control was recorded as 96.8

Considering CNC(C)C(=O)NC1CN(S(=O)(=O)c2cccc(S(=O)(=O)N3CCC4CCC(C(=O)NC(c5ccccc5)c5ccccc5)N4C(=O)C(NC(=O)C(C)NC)C3)c2)CCC2CCC(C(=O)NC(c3ccccc3)c3ccccc3)N2C1=O (stereo not drawn) + CCN1C(C(=O)NC23CCC(C(=O)O)(CC2)CC3)C(c2cccc(Cl)c2F)C2(C(=O)Nc3cc(Cl)ccc32)C12CCCCC2 , its viability, T/C with 494315-158-R-J1-PDC complex spheroid growth, percent test/control was recorded as 31.1

Considering C=CC(=O)N1CCN(c2nc(=O)n(-c3c(C)ccnc3C(C)C)c3nc(-c4c(O)cccc4F)c(F)cc23)C(C)C1 (stereo not drawn) + CCN1C(C(=O)NC23CCC(C(=O)O)(CC2)CC3)C(c2cccc(Cl)c2F)C2(C(=O)Nc3cc(Cl)ccc32)C12CCCCC2 , its viability, T/C with 494315-158-R-J1-PDC complex spheroid growth, percent test/control was recorded as 96.3

Considering C=C(F)C(=O)N1CCN(c2nc(OCC3CCCN3C)nc3c2CCN(c2cccc4cccc(Cl)c24)C3)CC1CC#N (stereo not drawn) + CCN1C(C(=O)NC23CCC(C(=O)O)(CC2)CC3)C(c2cccc(Cl)c2F)C2(C(=O)Nc3cc(Cl)ccc32)C12CCCCC2 , its viability, T/C with 494315-158-R-J1-PDC complex spheroid growth, percent test/control was recorded as 93.2
